- TARGET: PDE9 (Homo sapiens, UniProt O76083)
- Sequence (O76083 whole entry): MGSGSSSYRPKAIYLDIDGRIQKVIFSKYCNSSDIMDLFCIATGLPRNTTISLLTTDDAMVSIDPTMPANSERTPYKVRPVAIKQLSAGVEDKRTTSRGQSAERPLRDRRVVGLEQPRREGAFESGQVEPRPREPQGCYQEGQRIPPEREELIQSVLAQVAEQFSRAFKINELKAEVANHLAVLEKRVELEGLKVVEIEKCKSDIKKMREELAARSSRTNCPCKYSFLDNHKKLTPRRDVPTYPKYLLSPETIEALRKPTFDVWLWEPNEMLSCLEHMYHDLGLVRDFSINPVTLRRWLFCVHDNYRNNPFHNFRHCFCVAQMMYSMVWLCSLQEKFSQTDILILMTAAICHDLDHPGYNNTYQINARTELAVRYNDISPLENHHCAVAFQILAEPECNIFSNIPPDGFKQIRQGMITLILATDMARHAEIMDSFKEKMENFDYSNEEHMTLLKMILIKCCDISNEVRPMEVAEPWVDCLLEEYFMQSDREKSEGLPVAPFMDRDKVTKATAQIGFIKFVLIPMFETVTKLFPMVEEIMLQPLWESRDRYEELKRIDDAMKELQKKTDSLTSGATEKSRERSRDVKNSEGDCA
- ASSAY: PDE9 inhibition assay
- Format: biochemical
- MEASUREMENT_CONDITIONS: SPA assay, 10 nM 3H-cAMP, 1 hour incubation; read-out: IC50
- Method: Reactions are initiated by addition of the cyclic nucleotide substrate, and reactions are allowed to proceed for one hr at room temperature before being terminated through mixing with 15 uL 8 mg/mL yttrium silicate SPA beads (Amersham). […] IC50 values were calculated by non linear regression using XLfit (IDBS).
PARAMETER_MEASURED: IC50 (µM)

COMPOUND | RESULT_UNIT | VALUE_MEASURED
N#Cc1ccc(C2CN(Cc3cn4c(C5CCOCC5)ncc4c(=O)[nH]3)C2)cc1 [Compound 106] | µM | 0.032
COC1CN(C(C)C2(C)Cn3c(cnc3C3CCOCC3)C(=O)N2)C1 (stereo not shown) [Compound 112] | µM | 0.022
N#Cc1cccc(C2CN(Cc3cn4c(C5CCOCC5)ncc4c(=O)[nH]3)C2)c1 [Compound 107] | µM | 0.035
CC1CN(Cc2ccccn2)CC1c1cn2c(-c3ccc(F)cc3)ncc2c(=O)[nH]1 (stereo not shown) [Compound 114] | µM | 0.007
O=c1[nH]c(CN2CC(Oc3cccc(F)n3)C2)cn2c(C3CCOCC3)ncc12 [Compound 65] | µM | 0.091
O=c1[nH]c(CN2CC(c3ccc(F)cc3)C2)cn2c(C3CCOCC3)ncc12 [Compound 44] | µM | 0.025
N#Cc1ccc(OC2CN(Cc3cn4c(C5CCOCC5)ncc4c(=O)[nH]3)C2)cc1 [Compound 80] | µM | 0.018
O=c1[nH]c(CN2CCC(Oc3ccccc3)C2)cn2c(-c3ccc(F)cc3)ncc12 (stereo not shown) [Compound 85] | µM | 0.14
CCc1ccc(C2CN(Cc3cn4c(C5CCOCC5)ncc4c(=O)[nH]3)C2)cc1 [Compound 78] | µM | 0.006
O=c1[nH]c(CN2CC(Oc3ccc(OC(F)(F)F)cc3)C2)cn2c(-c3ccc(F)cc3)ncc12 [Compound 74] | µM | 0.016
O=c1[nH]c(CN2CC(Oc3ccc(F)cc3)C2)cn2c(-c3ccc(F)cc3)ncc12 [Compound 63] | µM | 0.013
O=c1[nH]c(CN2CC(c3ncccn3)C2)cn2c(-c3ccc(F)cc3)ncc12 [Compound 53] | µM | 0.022
CC(c1cn2c(-c3ccccc3)ncc2c(=O)[nH]1)N1CC(Oc2cccc(F)n2)C1 (stereo not shown) [Compound 27] | µM | 0.038
N#Cc1cccc(OC2CN(Cc3cn4c(-c5ccc(F)cc5)ncc4c(=O)[nH]3)C2)c1 [Compound 93] | µM | 0.018
O=c1[nH]c(CN2CC(Oc3ccccc3F)C2)cn2c(-c3ccc(F)cc3)ncc12 [Compound 49] | µM | 0.016
CC(NCC1CCCCC1)c1cn2c(-c3ccccc3)ncc2c(=O)[nH]1 (stereo not shown) [Compound 2] | µM | 0.187
O=c1[nH]c(CN2CCC(Oc3ncccn3)C2)cn2c(-c3ccc(F)cc3)ncc12 (stereo not shown) [Compound 86] | µM | 0.233
COC1CN(C(C)c2cn3c(-c4ccc(F)cc4)ncc3c(=O)[nH]2)C1 (stereo not shown) [Compound 1] | µM | 0.073
O=c1[nH]c(CN2CC(OCc3ccccc3)C2)cn2c(-c3ccc(F)cc3)ncc12 [Compound 45] | µM | 0.001
O=c1[nH]c(CN2CC(OCc3ccccc3)C2)cn2c(C3CCOCC3)ncc12 [Compound 67] | µM | 0.02
O=c1[nH]c(CN2CC(Oc3ncccn3)C2)cn2c(C3CCCC3)ncc12 [Compound 39] | µM | 0.022
O=c1[nH]c(CN2CCC(Nc3ccccc3)C2)cn2c(C3CCOCC3)ncc12 (stereo not shown) [Compound 66] | µM | 0.015
O=c1[nH]c(CN2CC(Oc3cccc(F)c3)C2)cn2c(-c3ccccc3)ncc12 [Compound 16] | µM | 0.097
CC(c1cn2c(C3CCCC3)ncc2c(=O)[nH]1)N1CC(Oc2ccccc2F)C1 (stereo not shown) [Compound 52] | µM | 0.049
COC1CN(Cc2cn3c(-c4ccccc4)ncc3c(=O)[nH]2)C1 [Compound 3] | µM | 0.09
CC(c1cn2c(-c3ccccc3)ncc2c(=O)[nH]1)N1CC(Oc2ccc(F)cc2)C1 (stereo not shown) [Compound 26] | µM | 0.019
Cc1cnc(CN2CC(C)C(c3cn4c(C5CCOCC5)ncc4c(=O)[nH]3)C2)cn1 (stereo not shown) [Compound 102] | µM | 0.01
O=c1[nH]c(CN2CC(Oc3ccncc3)C2)cn2c(C3CCOCC3)ncc12 [Compound 82] | µM | 0.014
